test system: sorbitol accumulation in rat lens; assay: Lens culture and sorbitol accumulation in rat lens; type: cell-based; settings: rat lens cultured 6 d in 30 mM glucose, compound 5 μg/mL; mean ± SD (n = 3)
attribute.measured: Sorbitol Content (mg)/lens Wet Weight (g) (mg/g)
# value in mg/g; strip the unit string

O=c1c(O)c(-c2ccc(O)cc2)oc2cc(O)cc(O)c12 [Compound 6, kaempferol]
0.03
O=c1cc(-c2ccc(O)cc2)oc2cc(O)cc(O)c12 [Compound 2, apigenin]
0.19
COc1cc2oc(-c3ccc(O)c(O)c3)c(OC)c(=O)c2c(O)c1OC [Compound 5, chrysosplenol]
0.26
O=c1cc(-c2ccc(O)c(O)c2)oc2cc(O)cc(O)c12 [Compound 4, luteolin]
0.12
COc1cc(/C=C/C(=O)O)ccc1O [Compound 1, ferulic acid]
0.29
O=c1cc(-c2ccc(O)c(O)c2)oc2cc(O[C@@H]3O[C@H](CO)[C@@H](O)[C@H](O)[C@H]3O)cc(O)c12 [Compound 3, luteolin-7-O-glucoside]
0.07

Lab book: Sorbitol Content (mg)/lens Wet Weight (g) of O=c1c(O)c(-c2ccc(O)c(O)c2)oc2cc(O)cc(O)c12 [Quercetin, quercetin, reference compound] noted as 0.21

###

biological target: human recombinant aldose reductase (HRAR) (Homo sapiens, UniProt P15121); construct: purchased Wako Pure Chemical Industries (Osaka, Japan); assay: Human recombinant aldose reductase ultrafiltration HPLC assay; format: binding; details: peak in TP extract (0.1 mg/mL) incubated with 3.9 μM HRAR
Entries and their HRAR binding degree (%) values follow.
State the value, then name its unit.

COc1ccc(-c2oc3cc(O)c(OC)c(O)c3c(=O)c2OC)cc1 [Compound 7, santin]
0%
O=c1cc(-c2ccc(O)c(O)c2)oc2cc(O)cc(O)c12
38.02%

Now look at this entry.
Lab book: HRAR binding degree (%) of `COc1cc(/C=C/C(=O)O)ccc1O` noted as 27.08%

###

assay: DPPH-HPLC assay; conditions: peak in TP extract after reaction with DPPH, HPLC 254 nm
attribute.measured: DPPH PAR (%), peak area reduction
State the value, then name its unit.

O=c1cc(-c2ccc(O)c(O)c2)oc2cc(O[C@@H]3O[C@H](CO)[C@@H](O)[C@H](O)[C@H]3O)cc(O)c12 [Compound 3, luteolin-7-O-glucoside]
16.85%
O=c1cc(-c2ccc(O)cc2)oc2cc(O)cc(O)c12
11.28%
O=c1c(O)c(-c2ccc(O)cc2)oc2cc(O)cc(O)c12
13.97%
COc1ccc(-c2oc3cc(O)c(OC)c(O)c3c(=O)c2OC)cc1 [Compound 7, santin]
0%
O=c1cc(-c2ccc(O)c(O)c2)oc2cc(O)cc(O)c12
29.36%

Lab book: DPPH PAR (%), peak area reduction of `COc1cc(/C=C/C(=O)O)ccc1O` noted as 23.53%

Lab book: DPPH PAR (%), peak area reduction of `COc1cc2oc(-c3ccc(O)c(O)c3)c(OC)c(=O)c2c(O)c1OC` noted as 7.19%

###

Below are IC50 values recorded for rat lens aldose reductase (RLAR) (Rattus norvegicus, UniProt P07943).

// known answers, use as guide
O=c1cc(-c2ccc(O)c(O)c2)oc2cc(O[C@@H]3O[C@H](CO)[C@@H](O)[C@H](O)[C@H]3O)cc(O)c12 [Compound 3, luteolin-7-O-glucoside]
1.11 to 3.2 µM
O=c1cc(-c2ccc(O)cc2)oc2cc(O)cc(O)c12 [Compound 2, apigenin]
1.11 to 3.2 µM
O=c1c(O)c(-c2ccc(O)cc2)oc2cc(O)cc(O)c12 [Compound 6, kaempferol]
1.11 to 3.2 µM
COc1cc(/C=C/C(=O)O)ccc1O [Compound 1, ferulic acid]
1.11 to 3.2 µM

IC50 on rat lens aldose reductase (RLAR) (Rattus norvegicus, UniProt P07943) for COc1cc2oc(-c3ccc(O)c(O)c3)c(OC)c(=O)c2c(O)c1OC [Compound 5, chrysosplenol] is 1.11 to 3.2 µM

IC50 on rat lens aldose reductase (RLAR) (Rattus norvegicus, UniProt P07943) for COc1ccc(-c2oc3cc(O)c(OC)c(O)c3c(=O)c2OC)cc1 [Compound 7, santin] is > 28 µM

###

target: human recombinant aldose reductase (HRAR) (Homo sapiens, UniProt P15121); construct: purchased Wako Pure Chemical Industries (Osaka, Japan); assay: Human recombinant aldose reductase ultrafiltration HPLC assay; assay type: binding; settings: peak in TP extract (0.1 mg/mL) incubated with 3.9 μM HRAR
attribute.measured: HRAR binding degree (%)
# value in %; strip the unit string

Lab book: HRAR binding degree (%) of `O=c1cc(-c2ccc(O)cc2)oc2cc(O)cc(O)c12` noted as 15.00

Lab book: HRAR binding degree (%) of `O=c1c(O)c(-c2ccc(O)cc2)oc2cc(O)cc(O)c12` noted as 24.29

Lab book: HRAR binding degree (%) of O=c1cc(-c2ccc(O)c(O)c2)oc2cc(O[C@@H]3O[C@H](CO)[C@@H](O)[C@H](O)[C@H]3O)cc(O)c12 [Compound 3, luteolin-7-O-glucoside] noted as 26.58

Lab book: HRAR binding degree (%) of `COc1cc2oc(-c3ccc(O)c(O)c3)c(OC)c(=O)c2c(O)c1OC` noted as 25.54
